Provide the reported GI50 of each item.
Tested on: SF-539
test_name: NCI tumour cell line growth inhibition, 48 h
Calls of active or inactive are those of the source. Cut-off read from the data, not from the text of the source: active = GI50 up to about 1.1 µM and inactive = higher.

Record OC(c1nc2ccccc2[nH]1)C(O)C(O)C(O)c1nc2ccccc2[nH]1 (stereo unspecified) has SF-539 GI50 equal to > 100 µM (inactive)

GI50 of `N#Cc1c(N2CCCC2)nsc1Nc1ccc(F)cc1` , assay on SF-539, is > 100 µM (inactive)

Entry `CCOP(=O)(OCC)/C(C#N)=C/c1cnc(C)[nH]1` under SF-539 had GI50 of > 100 µM (inactive)

Bench note, SF-539: `CCc1ccccc1NC(=O)C1=C(C)NC(C)=C(C(=O)Nc2ccccc2CC)C1c1ccc2c(c1)OCO2` , GI50 reads 16.8 µM (inactive)

Assay SF-539, sample `O=[N+]([O-])C(=C(c1ccccc1)c1ccccc1)[N+](=O)[O-]` , GI50 read: 13.6 µM (inactive)

Entry `CC(/C=N/N(C)C1=NCCCN1)=N/N(C)C1=NCCCN1` : GI50 on SF-539 = > 100 µM (inactive)

Record `COc1ccc(-c2onc(-c3ccc([N+](=O)[O-])cc3)c2C2=NCCN2)cc1` has SF-539 GI50 equal to 38 µM (inactive)

Per the reported SF-539 data, `C/C(=N\N=C(/S)N1CC2CCC(CC2)C1)c1cccc[n+]1[O-]` has GI50 of 5.85 µM (inactive)

GI50 of O=C1C(C(c2ccc([N+](=O)[O-])cc2)N2CCOCC2)=C(O)C(c2ccccc2)N1c1ccccc1 (stereo unspecified) , assay on SF-539, is > 10 µM (inactive)

Record c1c[nH]c(C23C4C5C6C4C2C6C53)n1 (stereo unspecified) has SF-539 GI50 equal to > 100 µM (inactive)

Lab note: molecule `CCCCOCCOC1=CC(=O)c2c(O)ccc(O)c2C1=O` tested on SF-539; recorded GI50 was 1.58 µM (inactive)

---

Exercise: state measured GI50 for each of the compounds provided.
Tested on: CAKI-1
test_name: NCI tumour cell line growth inhibition, 48 h
Calls of active or inactive are those of the source. Rule as the data show it: active = GI50 up to about 1.1 µM and inactive = higher.

For this compound ( `CN/N=C(\C)CC(=O)Nc1cccc(Cl)c1C` ), measured GI50 is > 100 µM (inactive)

Lab book: GI50 of `CC(C)(Cc1ccccc1)NC1=NCCO1` noted as > 100 µM (inactive)

Lab note: measured GI50 of CC1(C)CCCCCCCCCC(C)(CCCO)C1=O (stereo unspecified) was 17.7 µM (inactive)

For C[N+]12CCCCC1C(CN1C(=O)Cc3c4ccccc4c(c4ccccc34)CC1=O)CCC2 (stereo unspecified) the compound record lists GI50 as > 100 µM (inactive)

So for `CCc1cc2c(c3[nH]ccc13)[C@@H](C)C[C@H]2C` , the logged GI50 turned out to be 15.8 µM (inactive)

Item: `CC(=O)C(C)(C)CCC(C)(C)C(C)=O` | GI50: > 100 µM (inactive)

---

Hi there, I'd appreciate the recorded GI50 for every entry that follows.
System: 786-0
test_name: NCI tumour cell line growth inhibition, 48 h
Calls of active or inactive are those of the source. Rule as the data show it: active = GI50 up to about 1.1 µM and inactive = higher. Where a SMILES comes first, the peptide text is derived from it. Bridges are numbered along the chain shown (N, C = ends). [ ]: non-standard residue; d: D form. The star is where a group is joined. ξ: configuration not given here. X28 = O=C(/C=C/C=C/C=C/C=C/C=C/C(=O)*)NC1=C(O)CCC1=O; NMeA = CN[C@@H](C)C(=O)O; ξF = NC(Cc1ccccc1)C(=O)O; ξA = CC(N)C(=O)O

Record Cc1ccccc1OC(C)C(=O)NN1C(=O)CSC1c1ccccc1 (stereo not drawn) / 786-0, GI50 recorded as > 100 µM (inactive)

# GI50 measured on 786-0 for item O=C1OC(C2Cc3ccccc3C2=O)c2ccccc21 (stereo not drawn) = > 100 µM (inactive)

// molecule `CN[C@H](C)[C@@H](OC)c1ccccc1` , assay 786-0, GI50 value: > 100 µM (inactive)

Summary: `COc1ccc(Nc2nc3cc(C(F)(F)F)ccc3nc2C(=O)O)cc1OC` , 786-0, GI50 = 31 µM (inactive)

Bench note, 786-0: entry CCOc1ccc(NC(=O)C(=O)C(/C(=N/N)C(=O)OC)c2nc3ccc([N+](=O)[O-])cc3nc2O)cc1 (stereo not drawn) , its GI50 = > 100 µM (inactive)

Per the reported 786-0 data, `Cc1cc(N)c2cc(NC(=O)CCCCCCCCC(=O)Nc3ccc4nc(C)cc(N)c4c3)ccc2n1` has GI50 of 28.2 µM (inactive)

So the reported GI50 for CC1NC(=O)[C@H](C)N(C)C(=O)[C@@H]2CCCN2C(=O)[C@@H](NC(=O)C(Cc2ccccc2)NC(=O)/C=C/C=C/C=C/C=C/C=C/C(=O)NC2=C(O)CCC2=O)COC(=O)[C@@H]2CCCN2C1=O (stereo partly drawn) (X28-[ξF]SP[NMeA][ξA]P; ester 2-C) , on 786-0, turned out to be > 100 µM (inactive)

Bench note, 786-0: `O=c1cc(N=P(c2ccccc2)(c2ccccc2)c2ccccc2)n(-c2ccccc2)c(=O)n1-c1ccccc1` , GI50 reads 6.3 µM (inactive)

---

System: SK-MEL-28
test_name: NCI tumour cell line growth inhibition, 48 h
Activity calls are given as the source filed them. No stated cut-off is given here; in the data, active = GI50 up to about 1.1 µM and inactive = higher.
Use one of these outcomes when replying: true = active, false = inactive

## Input Assay result, entry `CC(C)(C)C(=O)Nc1ccccc1Br` — outcome?
## Output false

## Input Any idea what this test logged for `CSc1nc2[nH]c(=O)c(C)nc2c(=O)[nH]1` ?
## Output false

## Input Test call, this compound: C=C1C(=O)[C@]23C[C@H]1C[C@@H](O)[C@H]2[C@]1(COC3=O)[C@@H](OC(C)=O)CC[C@@](C)(COC(C)=O)[C@H]1C=O [LOXOTHYRIN A]
## Output false

## Input So what was the verdict on CC(NC(=O)C(Cc1ccc(OC(=O)c2ccccc2)cc1)NC(=O)OC(C)(C)C)C(=O)NCC(=O)NC(Cc1ccccc1)NC(=O)OCc1ccccc1 (stereo unspecified) in this test?
## Output false

## Input Recorded test call requested for `N=C(N)NCCN1CC2CCC(CC2)C1`
## Output false

## Input I'd appreciate the recorded outcome for `Cc1ccc(C(=O)N/N=C(\N=N\c2ccccc2C(=O)O)c2ccc(N(C)C)cc2)cc1` from this test.
## Output false

## Input Returns: the outcome recorded for CC(N/N=C(\S)N1CCCC1)c1cccnn1 (stereo unspecified) in this assay.
## Output true

## Input # outcome recorded in this test, key = `O=C(Nc1c(O)[nH]c(=S)[nH]c1=O)c1ccccc1`
## Output false

## Input Check the results log: what was the call for `CN(C)CCNC(=O)c1cccc2c(Nc3ccc(S(=O)(=O)N=C(N)N)cc3)c3ccccc3nc12` ?
## Output false

## Input Tell me the assay call for CC(C(=O)c1ccccc1)C1(O)C(=O)Nc2ccc(Cl)cc21 (stereo unspecified) please.
## Output false

## Input Per the records of this test, what outcome belongs to `O=C1NC2(CCCCC2)C2=C1CCCCC2` ?
## Output false

---

Test system: LXFL 529
test_name: NCI tumour cell line growth inhibition, 48 h
Active and inactive are the calls of the source. Cut-off read from the data, not from the text of the source: active = GI50 up to about 1.1 µM and inactive = higher.
Give one outcome, nothing more. List: active, inactive

## Input Please indicate how the test categorized `CCOC(=O)CCn1cnc(N)n1` .
## Output inactive

## Input What did this assay record as the result for `Cc1nc2c(N)ncnc2o1` ?
## Output inactive

## Input Recorded test outcome, item CCCCCCCCCCCCCCCCCCNC(=O)OCC(CNS(=O)(=O)CCC[n+]1cccc2ccccc21)COC (centres undefined)
## Output inactive

## Input Hello, I am checking results. What call was entered for `Cc1cc2c(=O)c3ccc(Cl)cc3[nH]c2c(C(=O)O)c1C` ?
## Output inactive

## Input Identify the outcome logged in this assay for the compound shown: CCOC(=O)C1N(S(=O)(=O)c2ccc(C)cc2)CCC12c1ccccc1N(C(C)=O)C2c1ccc(OC)c(OC)c1 (centres undefined)
## Output inactive

## Input I'd appreciate the recorded outcome for CCC(C)CCOC(=O)c1ccc(/N=C\c2ccc(/C=N/c3ccc(C(=O)OCCC(C)CC)cc3)cc2)cc1 (centres undefined) from this test.
## Output inactive

## Input Outcome? `Nc1c(Cl)ncnc1NCCCCCCCCCCCCNc1ncnc(Cl)c1N`
## Output active

## Input In this assay, the call recorded for CC(C)C1COC(c2ccc3ccccc3c2-c2c(O[Si](C)(C)C(C)(C)C)ccc3ccccc23)=N1 (centres undefined) was what?
## Output inactive

## Input Test call, this compound: O=C1NC(=O)C2C1N(Cc1ccccc1)C(=O)N2Cc1ccccc1 (centres undefined)
## Output inactive

## Input What is the recorded call for this compound in the test? COC1=CC(=O)C2C(C1=O)[C@@H]1c3ccccc3OC[C@H]21 (some centres undefined)
## Output inactive

## Input I would be grateful if you could indicate the recorded call for `CC(C)(C)C(=O)Nc1ccccc1Br` .
## Output inactive

## Input Assay result, entry `CCc1ccccc1NC(=O)C1=C(C)NC(C)=C(C(=O)Nc2ccccc2CC)C1c1ccc2c(c1)OCO2` — outcome?
## Output inactive

## Input # fetch the recorded call for `O=C(O)c1cc2sc(C(=O)O)cc2s1` here
## Output inactive

## Input Tell me the recorded outcome of this test for `O=C(Nc1c(O)[nH]c(=S)[nH]c1=O)c1ccccc1` .
## Output inactive

## Input // outcome(item) with item = `C=Cc1ccc(C)[n+](C[Si](C)(C)O[Si](C)(C)C[n+]2cc(C=C)ccc2C)c1`
## Output inactive

## Input Call for entry CC[C@@]1(O)C[C@H](OC2CC(N(C)C)C(OC3CC(O)C(OC4CCC(=O)C(C)O4)C(C)O3)C(C)O2)c2c(cc3c(c2O)C(=O)c2c(O)cccc2C3=O)[C@H]1C(=O)OC (some centres undefined) :
## Output active

## Input Would you mind telling me which call this test gave Cc1cc(O)nc(NNC(C#N)c2ccc([N+](=O)[O-])cc2)n1 (centres undefined) ?
## Output inactive

## Input Tell me the assay call for CC(C(=O)c1ccccc1)C1(O)C(=O)Nc2ccc(Cl)cc21 (centres undefined) please.
## Output inactive

## Input Hi, do you know how `NCc1ccc(O)c(O)c1O` came out in this test?
## Output inactive

## Input Please state the recorded outcome for this compound: `Oc1cccnc1/C=N/OCc1ccccc1`
## Output inactive

## Input Name the outcome recorded for `COC(=O)NC(=O)c1cn(CCCOC(=O)CCCCCCCCC(=O)OCCCn2cc(C(=O)NC(=O)OC)c(=O)[nH]c2=O)c(=O)[nH]c1=O` in the assay.
## Output inactive

## Input Please let me know the test result on file for CC(=O)OC1(C#N)CC2OC1C1NC21 (centres undefined) .
## Output inactive

## Input Hi, do you know how `C/C(CCN(C)C)=N/O` came out in this test?
## Output active

## Input # fetch the recorded call for O=C1C(Cl)N(c2ccccc2)C1c1c[nH]c2ccccc12 (centres undefined) here
## Output inactive
